parameter: pKi
Hey, just a heads up that pKi is the negative log base 10 of the concentration in molar.

Lookup: pKi / Cannabinoid receptor 2 (Homo sapiens) / Cc1c(C(=O)NC2CCCc3ccccc32)oc2ccc(S(=O)(=O)N3CC(C)CC(C)C3)cc12 (configuration not stated)
Found: 4.64

Lookup: pKi / Cannabinoid receptor 2 (Homo sapiens) / Cc1c(C(=O)N(C)Cc2ccccc2)oc2ccc(S(=O)(=O)N3CC(C)CC(C)C3)cc12 (configuration not stated)
Found: 5.18

Lookup: pKi / Cannabinoid receptor 2 (Homo sapiens) / Cc1c(C(=O)NCCc2ccccc2)oc2ccc(S(=O)(=O)N3CC(C)CC(C)C3)cc12 (configuration not stated)
Found: 5.22

Lookup: pKi / Cannabinoid receptor 2 (Homo sapiens) / Cc1ccc(CNC(=O)c2oc3ccc(S(=O)(=O)N4CC(C)CC(C)C4)cc3c2C)cc1 (configuration not stated)
Found: 4.72

Lookup: pKi / Cannabinoid receptor 2 (Homo sapiens) / Cc1c(C(=O)NC2CCCCC2)oc2ccc(S(=O)(=O)N3CC(C)CC(C)C3)cc12 (configuration not stated)
Found: 4.76

Lookup: pKi / Cannabinoid receptor 2 (Homo sapiens) / Cc1c(C(=O)NCc2ccc(F)cc2)oc2ccc(S(=O)(=O)N3CC(C)CC(C)C3)cc12 (configuration not stated)
Found: 5.40

Lookup: pKi / Cannabinoid receptor 2 (Homo sapiens) / CCCCNC(=O)c1oc2ccc(S(=O)(=O)N3CC(C)CC(C)C3)cc2c1C (configuration not stated)
Found: 5.03

====

targetOrTestSystem: Cannabinoid receptor 1 (Homo sapiens)
Sequence (P21554 whole entry): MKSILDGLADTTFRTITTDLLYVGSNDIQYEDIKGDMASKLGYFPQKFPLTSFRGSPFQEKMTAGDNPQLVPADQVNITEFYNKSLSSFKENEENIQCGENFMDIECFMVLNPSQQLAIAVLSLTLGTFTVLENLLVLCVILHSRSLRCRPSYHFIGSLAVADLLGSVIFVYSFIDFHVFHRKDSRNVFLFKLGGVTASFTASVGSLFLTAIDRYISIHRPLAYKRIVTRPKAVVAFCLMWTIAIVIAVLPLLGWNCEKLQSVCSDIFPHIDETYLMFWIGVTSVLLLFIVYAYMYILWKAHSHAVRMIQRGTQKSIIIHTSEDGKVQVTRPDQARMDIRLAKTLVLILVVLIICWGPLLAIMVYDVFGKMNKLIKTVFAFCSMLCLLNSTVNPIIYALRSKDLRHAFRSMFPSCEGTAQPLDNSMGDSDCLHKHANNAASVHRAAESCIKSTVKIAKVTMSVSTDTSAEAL
measurementDescription: Displacement of radioligand from human CB1 receptor expressed in HEK293 cells at 10 uM
Format: cell-based
parameter: inhibition
Please make sure the unit comes right after the number.

Lookup: So what does the record say about inhibition for Cc1c(C(=O)N(C)CCc2ccccc2)oc2ccc(S(=O)(=O)N3CC(C)CC(C)C3)cc12 (stereo not drawn) ?
Found: 92%

Lookup: So what does the record say about inhibition for CCCCNC(=O)c1oc2ccc(S(=O)(=O)N3CC(C)CC(C)C3)cc2c1C (stereo not drawn) ?
Found: 92%

Lookup: So what does the record say about inhibition for Cc1c(C(=O)NCCc2ccccc2)oc2ccc(S(=O)(=O)N3CC(C)CC(C)C3)cc12 (stereo not drawn) ?
Found: 92%

Lookup: So what does the record say about inhibition for CCN(CC)C(=O)c1oc2ccc(S(=O)(=O)N3CC(C)CC(C)C3)cc2c1C (stereo not drawn) ?
Found: 89%

Lookup: So what does the record say about inhibition for Cc1c(C(=O)NCc2ccccn2)oc2ccc(S(=O)(=O)N3CC(C)CC(C)C3)cc12 (stereo not drawn) ?
Found: 10%

Lookup: So what does the record say about inhibition for Cc1c(C(=O)N2CCCCCC2)oc2ccc(S(=O)(=O)N3CC(C)CC(C)C3)cc12 (stereo not drawn) ?
Found: 90%

Lookup: So what does the record say about inhibition for Cc1c(C(=O)N(C)CCC#N)oc2ccc(S(=O)(=O)N3CC(C)CC(C)C3)cc12 (stereo not drawn) ?
Found: 50%

Lookup: So what does the record say about inhibition for COc1ccc(Cl)cc1NC(=O)c1oc2ccc(S(=O)(=O)N3CC(C)CC(C)C3)cc2c1C (stereo not drawn) ?
Found: 12%
